Below is a list of entries, each paired with its recorded IC50 value.
- Test system: HepG2 cells
- procedure-summary: Intracellular ATP content (cell viability) assay
- Assay type: cell-based, human
- condition-info: Homo sapiens, HepG2, 40 h, read-out: ATP (HepG2, glucose) IC50
measured-parameter: IC50 (µM)

{"molecule": "O=C1c2ccccc2C(=O)C1C(=O)C(c1ccccc1)c1ccc(Cl)cc1 (stereo not drawn)", "measured-parameter": "IC50", "readout-number": 48.2}
{"molecule": "O=C(Nc1ccc([N+](=O)[O-])cc1Cl)c1cc(Cl)ccc1O [Niclosamide, reference compound]", "measured-parameter": "IC50", "readout-number": 2.01}
{"molecule": "N#CC(c1ccc(Cl)cc1)c1c(Cl)cc(-n2ncc(=O)[nH]c2=O)cc1Cl (stereo not drawn) [Diclazuril, reference compound]", "measured-parameter": "IC50", "readout-number": 50.4}
{"molecule": "CCCCCC[C@H]1C(=O)O[C@H](C)[C@H](NC(=O)c2cccc(NC=O)c2O)C(=O)O[C@@H](C)[C@@H]1OC(=O)CC(C)C [Antimycin A, reference compound]", "measured-parameter": "IC50", "readout-number": 0.02}
{"molecule": "CCOCn1c(-c2ccc(Cl)cc2)c(C#N)c(Br)c1C(F)(F)F", "measured-parameter": "IC50", "readout-number": 6.41}
{"molecule": "CO[C@H]1/C=C/O[C@@]2(C)Oc3c(C)c(O)c4c(O)c(c(/C=N/N5CCN(C6CCCC6)CC5)c(O)c4c3C2=O)NC(=O)/C(C)=C\\C=C\\[C@H](C)[C@H](O)[C@@H](C)[C@@H](O)[C@@H](C)[C@H](OC(C)=O)[C@@H]1C [Rifapentine, reference compound]", "measured-parameter": "IC50", "readout-number": 43.4}

* * *

- Test system: Caenorhabditis elegans (Bristol N2)
- procedure-summary: C. elegans larval development and growth assay
- condition-info: 10 µM
Threshold check on EXT: mean difference in nematode size relative to plate controls: strictly below 0.07 is TRUE; on or above 0.07 is FALSE.

{"compound": "Nc1ccc(N)c2c1C(=O)c1ccccc1C2=O", "label": "TRUE"}
{"compound": "O=C(Nc1ccccc1)Nc1ccccc1", "label": "TRUE"}
{"compound": "Cl.N=C1C=CC(=C(c2ccc(N)cc2)c2ccc(N)cc2)C=C1 [C.I. Basic red 9 monohydrochloride]", "label": "TRUE"}
{"compound": "O=C(Nc1ccc(Oc2ccc(Cl)cc2)c(Cl)c1)c1cc(I)cc(I)c1O [Rafoxanide, reference compound]", "label": "FALSE"}
{"compound": "CCc1cc(Cc2cc(CC)cc(C(C)(C)C)c2O)c(O)c(C(C)(C)C)c1", "label": "FALSE"}
{"compound": "NNc1nc(-c2ccc(N)cc2)cs1 [2-Hydrazino-4-(4-aminophenyl) thiazole]", "label": "FALSE"}
{"compound": "O=C(Nc1ccccc1)Nc1cnns1", "label": "FALSE"}
{"compound": "CO/C=C(/C(=O)OC)c1ccccc1COc1cccc(C(F)(F)F)n1", "label": "FALSE"}

* * *

- Tested on: isolated rat liver mitochondria
- procedure-summary: Oxygen consumption, Clark-type oxygen electrode
- Format: biochemical
- condition-info: 4 µM
measured-parameter: I-ADP, % of control (O2 consumption rate)

{"compound": "N#CC(C#N)=NNc1ccc(OC(F)(F)F)cc1 [FCCP, reference compound]", "target-or-test-system": "isolated rat liver mitochondria", "result": "74 (36.5) % of control"}
{"compound": "CO[C@H]1/C=C/O[C@@]2(C)Oc3c(C)c(O)c4c(O)c(c(/C=N/N5CCN(C)CC5)c(O)c4c3C2=O)NC(=O)/C(C)=C\\C=C\\[C@H](C)[C@H](O)[C@@H](C)[C@@H](O)[C@@H](C)[C@H](OC(C)=O)[C@@H]1C [Rifampicin, reference compound]", "target-or-test-system": "isolated rat liver mitochondria", "result": "85 (46.4) % of control"}
{"compound": "O=C1c2ccccc2C(=O)C1C(=O)C(c1ccccc1)c1ccc(Cl)cc1 (stereo not drawn) [Chlorophacinone]", "target-or-test-system": "isolated rat liver mitochondria", "result": "97 (42.2) % of control"}
{"compound": "O=C(Nc1ccc(Oc2ccc(Cl)cc2)c(Cl)c1)c1cc(I)cc(I)c1O [Rafoxanide, reference compound]", "target-or-test-system": "isolated rat liver mitochondria", "result": "95 (43.7) % of control"}
{"compound": "CCC(C)c1cc([N+](=O)[O-])cc([N+](=O)[O-])c1O (stereo not drawn) [Dinoseb]", "target-or-test-system": "isolated rat liver mitochondria", "result": "111 (48.1) % of control"}
{"compound": "CCOCn1c(-c2ccc(Cl)cc2)c(C#N)c(Br)c1C(F)(F)F [Chlorfenapyr]", "target-or-test-system": "isolated rat liver mitochondria", "result": "177 (76.8) % of control"}
